test: activity coefficient (dimensionless); of the first substance listed, at infinite dilution; xn = mol fraction of the nth substance listed; conditions: 328.15 K; Liquid; Chromatography; x1 = 0
Tick t if activity coefficient is 20 or greater. Tick f if activity coefficient is less than 20.

Some solved cases for reference:
{"columns": ["COMPOUND", "CLASS_LABEL"],
 "data": [
  ["CCc1ccccc1 [ethylbenzene] + CCCC[N+]1(C)CCCC1.O=S(=O)([O-])C(F)(F)F", "f"],
  ["C=CCCCCC [1-heptene] + CCCC[N+]1(C)CCCC1.O=S(=O)([O-])C(F)(F)F", "t"]
]}

Dear colleague, could you confirm whether Cc1ccc(C)cc1 [1,4-dimethylbenzene] + CCCC[N+]1(C)CCCC1.O=S(=O)([O-])C(F)(F)F has activity coefficient at or above 20? f

Threshold query (activity coefficient >= 20) on CCO [ethanol] + CCCC[N+]1(C)CCCC1.O=S(=O)([O-])C(F)(F)F f

Decide: activity coefficient of C1CCCCCCC1 [cyclooctane] + CCCC[N+]1(C)CCCC1.O=S(=O)([O-])C(F)(F)F >= 20? t
